- Assay Method Text: Mouse pharmacokinetics, oral gavage, plasma LC-MS/MS
- Format: in vivo
- Condition Description: plasma; mouse; single oral dose 20 mg/kg; read-out: average half-life (t1/2)
Metric: half-life

1) C=CC(=O)N[C@@H]1CN(c2nc(Nc3cn(C)nc3OC)c3ncn(C)c3n2)C[C@H]1F [Mavelertinib]: 2.91 h

---

- Tested on: G. lamblia WB6 (assemblage A)
- Assay Method Text: G. lamblia WB6 cell growth inhibition assay
- Format: cell-based
- Condition Description: Giardia duodenalis, read-out: EC50 against G. lamblia strain WB6
Metric: EC50

1. CC(=O)C[C@H]1CCCCN1: > 25 µM

---

- Assay Method Text: in vitro
- Condition Description: human
- Protocol: Compounds were screened at 5 μM with metronidazole (40 μM) as an inhibitor control and dimethyl sulfoxide (DMSO) as a neutral control. […] These primary hits were immediately assayed for reconfirmation and mammalian cytotoxicity against HEK293T cells in an 8-point dose-response format. Experimental details for the assays were described previously ([50]). […] Assays were performed as previously reported ([51]). Relative luminescence unit (RLU) values were analyzed in Genedata Screener (v13.0-Standard). […]
Metric: CC50

1) CC(=O)C[C@H]1CCCCN1 [Pelletierine]: > 25 µM
